- experimental_target: T1, kindlin-2 (KIND2) (UniProt Q8CIB5 1-680)
- T1 chain: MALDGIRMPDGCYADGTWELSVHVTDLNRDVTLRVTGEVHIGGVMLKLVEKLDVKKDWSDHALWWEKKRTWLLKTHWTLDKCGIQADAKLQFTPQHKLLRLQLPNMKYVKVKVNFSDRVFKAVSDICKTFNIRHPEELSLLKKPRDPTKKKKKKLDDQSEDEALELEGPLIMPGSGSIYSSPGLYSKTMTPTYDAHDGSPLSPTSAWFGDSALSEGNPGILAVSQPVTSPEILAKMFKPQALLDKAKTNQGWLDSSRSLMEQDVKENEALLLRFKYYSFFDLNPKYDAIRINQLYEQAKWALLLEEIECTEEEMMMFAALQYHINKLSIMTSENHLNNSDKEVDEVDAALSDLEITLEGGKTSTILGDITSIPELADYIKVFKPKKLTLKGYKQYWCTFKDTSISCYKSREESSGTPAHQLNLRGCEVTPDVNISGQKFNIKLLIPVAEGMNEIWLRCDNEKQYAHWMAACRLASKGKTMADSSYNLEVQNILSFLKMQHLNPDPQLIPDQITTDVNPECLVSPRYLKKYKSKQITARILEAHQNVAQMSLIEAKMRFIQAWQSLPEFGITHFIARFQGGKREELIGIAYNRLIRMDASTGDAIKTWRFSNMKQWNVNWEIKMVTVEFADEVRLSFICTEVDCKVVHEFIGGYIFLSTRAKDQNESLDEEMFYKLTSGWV
- assay_overview: MST
No end group written: not given here.
property: Kd (nM)
Report only the number, with the unit nM understood.

*Q* For the binder {ATTO 488}-KLLMIIHDRREFAKFEKEKMNAKWDTGENPIYKSAVTTVVNPKYEGK [ATTO 488-labelled β1-CT (488–β1-CT)] , give its reported Kd.
*A* 3000
